// provenance: the supplement of paper PMC8617591

Tested on: Mycobacterium tuberculosis Erdman (autoluminescent)
ASSAY_COMMENT: total FIC50 (Loewe) at 50% inhibition, three-drug combination (log2); higher = more antagonistic
CONDITIONS_USED: in vitro model: acidic pH 5.7; time point: constant (~7 days, model-specific)
RESULT_TYPE: total FIC50
Answers are plain numbers.

Below, 2 compounds whose answers are already recorded.
compound="CC[C@@H](CO)NCCN[C@@H](CC)CO [ethambutol] + CO[C@H]1/C=C/O[C@@]2(C)Oc3c(C)c(O)c4c(O)c(c(/C=N/N5CCN(C6CCCC6)CC5)c(O)c4c3C2=O)NC(=O)/C(C)=C\\C=C\\[C@H](C)[C@H](O)[C@@H](C)[C@@H](O)[C@@H](C)[C@H](OC(C)=O)[C@@H]1C [rifapentine] + CO[C@H]1/C=C/O[C@@]2(C)Oc3c(C)c(O)c4c(O)c(c(/C=N/N5CCN(C)CC5)c(O)c4c3C2=O)NC(=O)/C(C)=C\\C=C\\[C@H](C)[C@H](O)[C@@H](C)[C@@H](O)[C@@H](C)[C@H](OC(C)=O)[C@@H]1C [rifampicin]" target_of_assay="Mycobacterium tuberculosis Erdman (autoluminescent)" result_type="total FIC50" test_result=-0.0556
compound="COc1nc2ccc(Br)cc2cc1[C@@H](c1ccccc1)[C@@](O)(CCN(C)C)c1cccc2ccccc12 [bedaquiline] + CC[C@@H](CO)NCCN[C@@H](CC)CO [ethambutol] + COc1c(N2C[C@@H]3CCCN[C@@H]3C2)c(F)cc2c(=O)c(C(=O)O)cn(C3CC3)c12 [moxifloxacin]" target_of_assay="Mycobacterium tuberculosis Erdman (autoluminescent)" result_type="total FIC50" test_result=0.542

What is its total FIC50 for Mycobacterium tuberculosis Erdman (autoluminescent)? Entry: COc1nc2ccc(Br)cc2cc1[C@@H](c1ccccc1)[C@@](O)(CCN(C)C)c1cccc2ccccc12 [bedaquiline] + CC(C)/N=c1\cc2n(-c3ccc(Cl)cc3)c3ccccc3nc-2cc1Nc1ccc(Cl)cc1 [clofazimine] + O=[N+]([O-])c1cn2c(n1)OC[C@@H](OCc1ccc(OC(F)(F)F)cc1)C2 [pretomanid]
0.502

---

Tested on: Mycobacterium tuberculosis Erdman (autoluminescent)
ASSAY_COMMENT: GRinf, maximum normalised growth rate inhibition (three-drug combination) (unitless (-1 to 1)); higher = less effect (negative = killing)
CONDITIONS_USED: in vitro model: cholesterol 0.05 mM; time point: constant (~7 days, model-specific)
RESULT_TYPE: GRinf
One number for each entry.

Below, 2 molecules whose answers are already recorded.
molecule="CC(C)/N=c1\\cc2n(-c3ccc(Cl)cc3)c3ccccc3nc-2cc1Nc1ccc(Cl)cc1 [clofazimine] + CC(=O)NC[C@H]1CN(c2ccc(N3CCOCC3)c(F)c2)C(=O)O1 [linezolid] + CO[C@H]1/C=C/O[C@@]2(C)Oc3c(C)c(O)c4c(O)c(c(/C=N/N5CCN(C)CC5)c(O)c4c3C2=O)NC(=O)/C(C)=C\\C=C\\[C@H](C)[C@H](O)[C@@H](C)[C@@H](O)[C@@H](C)[C@H](OC(C)=O)[C@@H]1C [rifampicin]" target_of_assay="Mycobacterium tuberculosis Erdman (autoluminescent)" result_type=GRinf test_result=0.0599
molecule="COc1nc2ccc(Br)cc2cc1[C@@H](c1ccccc1)[C@@](O)(CCN(C)C)c1cccc2ccccc12 [bedaquiline] + CC(C)/N=c1\\cc2n(-c3ccc(Cl)cc3)c3ccccc3nc-2cc1Nc1ccc(Cl)cc1 [clofazimine] + COc1c(N2C[C@@H]3CCCN[C@@H]3C2)c(F)cc2c(=O)c(C(=O)O)cn(C3CC3)c12 [moxifloxacin]" target_of_assay="Mycobacterium tuberculosis Erdman (autoluminescent)" result_type=GRinf test_result=-0.218

Continue with the next molecule.
What is its GRinf for Mycobacterium tuberculosis Erdman (autoluminescent)? Entry: CC(C)/N=c1\cc2n(-c3ccc(Cl)cc3)c3ccccc3nc-2cc1Nc1ccc(Cl)cc1 [clofazimine] + COc1c(N2C[C@@H]3CCCN[C@@H]3C2)c(F)cc2c(=O)c(C(=O)O)cn(C3CC3)c12 [moxifloxacin] + O=[N+]([O-])c1cn2c(n1)OC[C@@H](OCc1ccc(OC(F)(F)F)cc1)C2 [pretomanid]
-0.152

---

System: Mycobacterium tuberculosis Erdman (autoluminescent)
ASSAY_COMMENT: AUC25, normalised area under dose response up to IC25 (fraction (0-1)); higher = more potent at low dose
CONDITIONS_USED: in vitro model: dormancy (butyrate + nitrate, low O2); time point: constant (~7 days, model-specific)
Cut-off 0.07 on AUC25, inclusive. At or above means criterion met; below means criterion not met.

compound="CC(C)/N=c1\\cc2n(-c3ccc(Cl)cc3)c3ccccc3nc-2cc1Nc1ccc(Cl)cc1 [clofazimine] + NC(=O)c1cnccn1 [pyrazinamide]" category="criterion met"
compound="CC[C@@H](CO)NCCN[C@@H](CC)CO [ethambutol] + CO[C@H]1/C=C/O[C@@]2(C)Oc3c(C)c(O)c4c(O)c(c(/C=N/N5CCN(C6CCCC6)CC5)c(O)c4c3C2=O)NC(=O)/C(C)=C\\C=C\\[C@H](C)[C@H](O)[C@@H](C)[C@@H](O)[C@@H](C)[C@H](OC(C)=O)[C@@H]1C [rifapentine]" category="criterion met"
compound="CC[C@@H](CO)NCCN[C@@H](CC)CO [ethambutol] + CC(=O)NC[C@H]1CN(c2ccc(N3CCOCC3)c(F)c2)C(=O)O1 [linezolid]" category="criterion met"

Item NNC(=O)c1ccncc1 [isoniazid] + O=[N+]([O-])c1cn2c(n1)OC[C@@H](OCc1ccc(OC(F)(F)F)cc1)C2 [pretomanid] with AUC25 of 0.07 or above?
criterion not met

Item COc1nc2ccc(Br)cc2cc1[C@@H](c1ccccc1)[C@@](O)(CCN(C)C)c1cccc2ccccc12 [bedaquiline] + COc1c(N2C[C@@H]3CCCN[C@@H]3C2)c(F)cc2c(=O)c(C(=O)O)cn(C3CC3)c12 [moxifloxacin] with AUC25 of 0.07 or above?
criterion not met

Item NNC(=O)c1ccncc1 [isoniazid] + NC(=O)c1cnccn1 [pyrazinamide] with AUC25 of 0.07 or above?
criterion met

Item COc1nc2ccc(Br)cc2cc1[C@@H](c1ccccc1)[C@@](O)(CCN(C)C)c1cccc2ccccc12 [bedaquiline] + CO[C@H]1/C=C/O[C@@]2(C)Oc3c(C)c(O)c4c(O)c(c(/C=N/N5CCN(C)CC5)c(O)c4c3C2=O)NC(=O)/C(C)=C\C=C\[C@H](C)[C@H](O)[C@@H](C)[C@@H](O)[C@@H](C)[C@H](OC(C)=O)[C@@H]1C [rifampicin] with AUC25 of 0.07 or above?
criterion met

Item COc1nc2ccc(Br)cc2cc1[C@@H](c1ccccc1)[C@@](O)(CCN(C)C)c1cccc2ccccc12 [bedaquiline] + NC(=O)c1cnccn1 [pyrazinamide] with AUC25 of 0.07 or above?
criterion not met

Item COc1nc2ccc(Br)cc2cc1[C@@H](c1ccccc1)[C@@](O)(CCN(C)C)c1cccc2ccccc12 [bedaquiline] + CC(C)/N=c1\cc2n(-c3ccc(Cl)cc3)c3ccccc3nc-2cc1Nc1ccc(Cl)cc1 [clofazimine] with AUC25 of 0.07 or above?
criterion not met

---

Test system: Mycobacterium tuberculosis Erdman (autoluminescent)
ASSAY_COMMENT: AUC25, normalised area under dose response up to IC25 (three-drug combination) (fraction (0-1)); higher = more potent at low dose
CONDITIONS_USED: in vitro model: standard 7H9 glycerol; time point: constant = terminal
Kindly state AUC25 for each of the entries shown.
Numbers only.

Below, 2 compounds whose answers are already recorded.
compound="NNC(=O)c1ccncc1 [isoniazid] + O=[N+]([O-])c1cn2c(n1)OC[C@@H](OCc1ccc(OC(F)(F)F)cc1)C2 [pretomanid] + CO[C@H]1/C=C/O[C@@]2(C)Oc3c(C)c(O)c4c(O)c(c(/C=N/N5CCN(C)CC5)c(O)c4c3C2=O)NC(=O)/C(C)=C\\C=C\\[C@H](C)[C@H](O)[C@@H](C)[C@@H](O)[C@@H](C)[C@H](OC(C)=O)[C@@H]1C [rifampicin]" result_type=AUC25 test_result=0.0661
compound="COc1nc2ccc(Br)cc2cc1[C@@H](c1ccccc1)[C@@](O)(CCN(C)C)c1cccc2ccccc12 [bedaquiline] + CC[C@@H](CO)NCCN[C@@H](CC)CO [ethambutol] + NNC(=O)c1ccncc1 [isoniazid]" result_type=AUC25 test_result=0.0658

Tell me the measured AUC25 of CC[C@@H](CO)NCCN[C@@H](CC)CO [ethambutol] + O=[N+]([O-])c1cn2c(n1)OC[C@@H](OCc1ccc(OC(F)(F)F)cc1)C2 [pretomanid] + CO[C@H]1/C=C/O[C@@]2(C)Oc3c(C)c(O)c4c(O)c(c(/C=N/N5CCN(C)CC5)c(O)c4c3C2=O)NC(=O)/C(C)=C\C=C\[C@H](C)[C@H](O)[C@@H](C)[C@@H](O)[C@@H](C)[C@H](OC(C)=O)[C@@H]1C [rifampicin] , please.
0.0649
